Values from patent US20100305173A1

experiment: Metabolic stability of test compounds in human liver microsomes
Format: in vitro ADME
condition-summary: human, liver microsomes, pH 7.4, half-life in human liver microsomes, Table 3, calculated average of Exp C and D; read-out: T1/2 (min) Average
measured-endpoint: half-life (min)

Completed entries (count: 2):
>>> meas_value("[2H]C([2H])([2H])C([2H])(C([2H])([2H])[2H])C([2H])([2H])N(C[C@@H](O)[C@H](Cc1ccccc1)NC(=O)O[C@]1([2H])[C@H]2[C@H](OC([2H])([2H])C2([2H])[2H])OC1([2H])[2H])S(=O)(=O)c1ccc2ncsc2c1")
8.1
>>> meas_value("[2H]C([2H])([2H])C([2H])(C([2H])([2H])[2H])C([2H])([2H])N(C[C@@H](O)[C@H](Cc1ccccc1)NC(=O)O[C@]1([2H])[C@@H]2CCO[C@@H]2OC1([2H])[2H])S(=O)(=O)c1ccc2ncsc2c1")
8.6

I: [2H]C([2H])([2H])C([2H])(C([2H])([2H])[2H])C([2H])([2H])N(C[C@@H](O)[C@H](Cc1ccccc1)NC(=O)O[C@@]1([2H])C([2H])([2H])O[C@@]2([2H])OC([2H])([2H])C([2H])([2H])[C@]21[2H])S(=O)(=O)c1ccc2ncsc2c1
II: CC(C)CN(C[C@@H](O)[C@H](Cc1ccccc1)NC(=O)O[C@H]1CO[C@H]2OCC[C@H]21)S(=O)(=O)c1ccc2ncsc2c1 [Compound 302, reference compound]
Request: Larger number for half-life: I , or II ? // return label of chosen record
Result: I
(I: 13.4 min, II: 8.5 min)
